# measurement.target: MRPS31 (UniProt Q92665)
# test.description: EC50 of free RNA motif oligo competing protein binding to immobilised probe
measurement.name: EC50 (nM)

• UAUUUAU = 93.7

* * *

# measurement.target: MRPS22 (UniProt P82650)
# test.description: EC50 of free RNA motif oligo competing protein binding to immobilised probe
measurement.name: EC50

* UAUUUAU | 85.6 nM

* * *

# measurement.target: HNRNPA2B1 (UniProt P22626)
# Sequence (P22626 whole entry): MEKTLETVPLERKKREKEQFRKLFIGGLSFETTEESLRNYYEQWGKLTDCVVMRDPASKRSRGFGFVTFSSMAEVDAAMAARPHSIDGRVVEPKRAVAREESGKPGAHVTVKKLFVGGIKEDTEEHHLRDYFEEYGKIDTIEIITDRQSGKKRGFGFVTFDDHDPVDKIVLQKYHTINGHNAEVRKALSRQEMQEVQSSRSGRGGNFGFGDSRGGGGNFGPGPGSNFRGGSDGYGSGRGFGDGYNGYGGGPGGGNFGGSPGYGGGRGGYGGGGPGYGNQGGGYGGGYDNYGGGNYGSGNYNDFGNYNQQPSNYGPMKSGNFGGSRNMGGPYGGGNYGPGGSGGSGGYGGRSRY
# test.description: EC50 of free RNA motif oligo competing protein binding to immobilised probe
pEC50: −log10 of the molar value.
measurement.name: pEC50

• UAUUUAU = 5.14

* * *

# measurement.target: XRN2 (UniProt Q9H0D6)
# Sequence: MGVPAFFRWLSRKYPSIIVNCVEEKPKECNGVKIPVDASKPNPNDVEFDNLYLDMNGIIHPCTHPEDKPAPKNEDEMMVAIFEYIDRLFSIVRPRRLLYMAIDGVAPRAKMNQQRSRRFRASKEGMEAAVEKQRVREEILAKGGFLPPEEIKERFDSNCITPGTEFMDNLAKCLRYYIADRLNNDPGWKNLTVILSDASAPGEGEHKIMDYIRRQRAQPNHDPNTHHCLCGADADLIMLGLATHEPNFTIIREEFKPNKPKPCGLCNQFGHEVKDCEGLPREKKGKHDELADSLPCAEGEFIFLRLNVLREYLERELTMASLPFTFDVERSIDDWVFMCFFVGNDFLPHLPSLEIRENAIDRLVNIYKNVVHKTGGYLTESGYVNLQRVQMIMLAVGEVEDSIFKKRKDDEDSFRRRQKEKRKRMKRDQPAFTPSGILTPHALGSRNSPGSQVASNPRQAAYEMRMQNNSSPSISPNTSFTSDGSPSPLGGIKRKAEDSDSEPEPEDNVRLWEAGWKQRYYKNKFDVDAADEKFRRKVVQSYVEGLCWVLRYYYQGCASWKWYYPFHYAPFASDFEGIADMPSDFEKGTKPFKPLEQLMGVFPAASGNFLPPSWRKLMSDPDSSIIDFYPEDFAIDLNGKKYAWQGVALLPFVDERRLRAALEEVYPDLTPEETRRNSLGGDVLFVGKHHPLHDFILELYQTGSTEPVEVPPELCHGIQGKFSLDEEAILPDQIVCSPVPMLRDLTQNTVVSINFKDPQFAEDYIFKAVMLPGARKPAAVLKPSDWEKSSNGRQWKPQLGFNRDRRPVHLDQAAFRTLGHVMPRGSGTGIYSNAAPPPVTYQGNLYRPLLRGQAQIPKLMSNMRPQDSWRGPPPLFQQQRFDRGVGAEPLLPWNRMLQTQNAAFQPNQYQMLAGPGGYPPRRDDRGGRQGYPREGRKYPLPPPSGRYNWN
# test.description: Kd (EC50 corrected by depletion factor)
Collected Kd values appear next to each entry.
measurement.name: Kd (nM)

- AAUAAA: 354
- CUGUCCU: 80.8
- UAUUUAU: 184

* * *

# measurement.target: RBM17 (UniProt Q96I25)
# Sequence: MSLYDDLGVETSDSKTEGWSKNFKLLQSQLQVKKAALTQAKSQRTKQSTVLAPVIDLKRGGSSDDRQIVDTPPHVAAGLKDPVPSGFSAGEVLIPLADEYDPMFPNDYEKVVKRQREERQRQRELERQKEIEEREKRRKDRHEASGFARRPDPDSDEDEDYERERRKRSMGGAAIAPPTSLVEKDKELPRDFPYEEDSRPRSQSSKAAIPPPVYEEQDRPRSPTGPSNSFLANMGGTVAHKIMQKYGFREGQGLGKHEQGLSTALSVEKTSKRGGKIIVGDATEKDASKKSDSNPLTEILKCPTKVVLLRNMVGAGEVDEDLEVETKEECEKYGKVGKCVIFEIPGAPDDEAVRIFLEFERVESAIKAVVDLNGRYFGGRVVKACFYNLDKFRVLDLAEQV
# test.description: Kd (EC50 corrected by depletion factor)
measurement.name: Kd (nM)

- UAUUUAU: 59.9
- AAUAAA: 940

* * *

# measurement.target: HNRNPAB (UniProt Q99729)
# Sequence (Q99729 whole entry): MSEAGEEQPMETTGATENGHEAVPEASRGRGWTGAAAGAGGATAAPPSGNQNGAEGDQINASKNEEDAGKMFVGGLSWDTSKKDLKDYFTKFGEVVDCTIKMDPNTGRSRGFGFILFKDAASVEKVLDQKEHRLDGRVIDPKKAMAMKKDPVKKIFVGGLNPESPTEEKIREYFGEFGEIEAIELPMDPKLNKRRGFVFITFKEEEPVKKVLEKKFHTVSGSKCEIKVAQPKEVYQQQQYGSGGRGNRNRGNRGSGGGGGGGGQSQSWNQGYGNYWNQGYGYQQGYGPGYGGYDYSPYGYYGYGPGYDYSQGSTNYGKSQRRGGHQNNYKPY
# test.description: Kd (EC50 corrected by depletion factor)
pKd: −log10 of the molar value.
measurement.name: pKd

- AAUAAA: 6.33
- UAUUUAU: 5.64

* * *

# measurement.target: PTBP3 (UniProt O95758)
# Sequence (O95758 whole entry): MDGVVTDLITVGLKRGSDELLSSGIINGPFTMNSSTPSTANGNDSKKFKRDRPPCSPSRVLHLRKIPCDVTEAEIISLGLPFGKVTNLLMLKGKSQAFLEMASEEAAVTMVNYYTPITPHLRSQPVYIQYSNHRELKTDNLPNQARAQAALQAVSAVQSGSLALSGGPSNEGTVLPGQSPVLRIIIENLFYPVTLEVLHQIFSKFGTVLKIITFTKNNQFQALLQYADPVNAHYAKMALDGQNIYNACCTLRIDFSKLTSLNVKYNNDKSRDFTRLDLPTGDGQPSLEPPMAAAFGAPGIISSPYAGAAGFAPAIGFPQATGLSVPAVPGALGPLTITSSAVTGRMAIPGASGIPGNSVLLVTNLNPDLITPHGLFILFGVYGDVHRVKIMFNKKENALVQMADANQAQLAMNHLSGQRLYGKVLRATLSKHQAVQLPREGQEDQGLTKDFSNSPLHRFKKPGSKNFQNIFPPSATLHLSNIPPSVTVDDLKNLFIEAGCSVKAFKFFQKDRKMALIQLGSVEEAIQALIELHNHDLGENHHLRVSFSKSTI
# test.description: Kd (EC50 corrected by depletion factor)
pKd: −log10 of the molar value.
measurement.name: pKd

- AAUAAA: 5.89

* * *

# measurement.target: RPS20 (UniProt P60866)
# test.description: EC50 of free RNA motif oligo competing protein binding to immobilised probe
measurement.name: EC50 (nM)

- AAUAAA: 3800
- CUGUCCU: 171

* * *

# measurement.target: FUBP1 (UniProt Q96AE4)
# Sequence: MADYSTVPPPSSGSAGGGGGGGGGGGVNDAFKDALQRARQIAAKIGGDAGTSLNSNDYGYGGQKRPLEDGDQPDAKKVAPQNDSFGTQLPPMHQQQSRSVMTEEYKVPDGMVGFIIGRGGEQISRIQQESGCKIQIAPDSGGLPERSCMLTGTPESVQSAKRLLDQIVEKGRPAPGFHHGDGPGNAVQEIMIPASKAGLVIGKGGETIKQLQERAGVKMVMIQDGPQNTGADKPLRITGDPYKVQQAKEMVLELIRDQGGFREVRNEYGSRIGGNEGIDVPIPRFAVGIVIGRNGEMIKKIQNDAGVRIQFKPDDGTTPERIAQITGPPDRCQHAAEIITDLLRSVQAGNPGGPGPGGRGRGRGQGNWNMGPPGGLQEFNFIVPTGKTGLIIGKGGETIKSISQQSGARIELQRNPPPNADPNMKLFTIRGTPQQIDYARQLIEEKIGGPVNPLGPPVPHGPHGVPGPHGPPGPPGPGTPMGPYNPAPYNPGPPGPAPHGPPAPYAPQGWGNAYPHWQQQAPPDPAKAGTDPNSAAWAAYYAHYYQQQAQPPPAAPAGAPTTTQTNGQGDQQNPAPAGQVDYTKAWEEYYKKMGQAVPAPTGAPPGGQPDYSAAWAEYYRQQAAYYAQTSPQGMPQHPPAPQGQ
# test.description: Kd (EC50 corrected by depletion factor)
measurement.name: Kd

• AAUAAA = 673 nM

* * *

# measurement.target: CMTR1 (UniProt Q8N1G2)
# Sequence: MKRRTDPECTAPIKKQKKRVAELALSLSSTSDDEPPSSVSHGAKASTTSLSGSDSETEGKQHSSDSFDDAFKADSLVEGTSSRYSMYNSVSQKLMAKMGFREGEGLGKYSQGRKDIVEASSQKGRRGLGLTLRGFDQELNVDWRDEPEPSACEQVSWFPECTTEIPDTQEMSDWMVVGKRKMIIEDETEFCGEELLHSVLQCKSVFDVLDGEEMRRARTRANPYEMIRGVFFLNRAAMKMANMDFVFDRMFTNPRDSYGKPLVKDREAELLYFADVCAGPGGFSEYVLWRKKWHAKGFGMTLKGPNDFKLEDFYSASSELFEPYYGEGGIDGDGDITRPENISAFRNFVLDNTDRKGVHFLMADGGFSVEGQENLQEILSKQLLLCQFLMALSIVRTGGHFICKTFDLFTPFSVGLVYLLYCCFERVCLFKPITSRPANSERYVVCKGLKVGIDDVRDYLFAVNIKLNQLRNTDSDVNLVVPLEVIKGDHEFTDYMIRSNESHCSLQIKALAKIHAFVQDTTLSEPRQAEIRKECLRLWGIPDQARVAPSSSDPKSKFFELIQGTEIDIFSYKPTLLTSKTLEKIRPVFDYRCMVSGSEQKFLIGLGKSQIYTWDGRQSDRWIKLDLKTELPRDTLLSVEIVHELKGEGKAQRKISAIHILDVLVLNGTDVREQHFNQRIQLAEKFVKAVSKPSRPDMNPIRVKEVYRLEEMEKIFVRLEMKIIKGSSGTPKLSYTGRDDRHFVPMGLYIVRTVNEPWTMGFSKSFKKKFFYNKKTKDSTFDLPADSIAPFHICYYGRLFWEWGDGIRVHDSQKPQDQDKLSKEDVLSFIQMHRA
# test.description: EC50 of free RNA motif oligo competing protein binding to immobilised probe
measurement.name: EC50

* AAUAAA | 298 nM
* UAUUUAU | 1200 nM

* * *

# measurement.target: MRPL19 (UniProt P49406)
# test.description: EC50 of free RNA motif oligo competing protein binding to immobilised probe
measurement.name: EC50 (nM)

- CUGUCCU: 136

* * *

# measurement.target: MRPS9 (UniProt P82933)
# test.description: Kd (EC50 corrected by depletion factor)
pKd: −log10 of the molar value.
measurement.name: pKd

- UAUUUAU: 7.57

* * *

# measurement.target: MRPL53 (UniProt Q96EL3)
# test.description: EC50 of free RNA motif oligo competing protein binding to immobilised probe
pEC50: −log10 of the molar value.
measurement.name: pEC50

- CUGUCCU: 6.99

* * *

# measurement.target: CSNK2A1 (UniProt P68400)
# Sequence (P68400 whole entry, looked up): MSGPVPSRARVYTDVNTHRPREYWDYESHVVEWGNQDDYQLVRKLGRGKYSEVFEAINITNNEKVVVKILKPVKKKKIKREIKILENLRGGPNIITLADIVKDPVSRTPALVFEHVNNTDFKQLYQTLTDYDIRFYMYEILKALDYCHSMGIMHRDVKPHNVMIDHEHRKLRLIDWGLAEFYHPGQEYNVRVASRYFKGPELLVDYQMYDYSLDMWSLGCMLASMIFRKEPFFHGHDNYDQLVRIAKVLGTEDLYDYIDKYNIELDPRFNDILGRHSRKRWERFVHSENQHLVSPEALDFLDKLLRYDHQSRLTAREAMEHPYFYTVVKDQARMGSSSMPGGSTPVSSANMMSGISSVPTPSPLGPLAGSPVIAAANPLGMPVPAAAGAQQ
# test.description: EC50 of free RNA motif oligo competing protein binding to immobilised probe
measurement.name: EC50 (nM)

- AAUAAA: 124
